Tested on: Multidrug-Resistant (MDR) S. aureus
procedure-details: microbe, parasite or virus in culture
condition: Staphylococcus aureus, 24 h, read-out: MIC, Staphylococcus aureus NR 46062
Below is a list of entries, each paired with its recorded MIC value.
Write the value in µg/mL as a bare number.

Would you please look over these solved cases?
CO/N=C(\C(=O)N[C@@H]1C(=O)N2C(C(=O)O)=C(COC(C)=O)CS[C@H]12)c1csc(N)n1 : 16
CC(=O)NC[C@H]1CN(c2ccc(N3CCOCC3)c(F)c2)C(=O)O1 : 16

## Input Any idea what its MIC is? The molecule is CC1(C)S[C@@H]2[C@H](NC(=O)[C@H](N)c3ccccc3)C(=O)N2[C@H]1C(=O)O
## Output 8

---

Below is a list of entries, each paired with its recorded MIC against MRSA ATCC 33591 value.
Test system: MRSA ATCC 33591
procedure-details: microbe, parasite or virus in culture
Assay type: cell-based, Staphylococcus aureus
condition: broth dilution in MHB with 0.002% v/v polysorbate 80, inoculum 10^5-10^6 CFU/mL, 37 °C, 24 h, no visible growth, two independent duplicates; Table 1

CC(C)C[C@@H]1NC(=O)[C@H](C)NC(=O)[C@H](NC(=O)[C@@H](CO)NC(=O)[C@H](CCCCN)NC(=O)[C@@H](CC(C)C)NC(=O)[C@@H](N)Cc2ccccc2)[C@H](C)OC(=O)[C@H](CC(C)C)NC1=O : > 32 µg/mL
CC(C)C[C@@H]1NC(=O)[C@H](C)NC(=O)[C@H](NC(=O)[C@H](CO)NC(=O)[C@@H](CCCCN)NC(=O)[C@@H](CC(C)C)NC(=O)[C@@H](N)Cc2ccccc2)[C@H](C)OC(=O)[C@H](CC(C)C)NC1=O : 2 to 4 µg/mL
CC(C)C[C@H](NC(=O)[C@H](N)Cc1ccccc1)C(=O)N[C@H](CCCCN)C(=O)N[C@@H](CO)C(=O)N[C@H]1C(=O)N[C@@H](C)C(=O)N[C@@H](CC(C)C)C(=O)N[C@@H](CC(C)C)C(=O)O[C@H]1C : > 32 µg/mL

## Input Any idea what its MIC against MRSA ATCC 33591 is? The compound is CC(C)C[C@@H]1NC(=O)[C@H](C)NC(=O)[C@H](NC(=O)[C@H](CO)NC(=O)[C@H](CCCCN)NC(=O)[C@H](CC(C)C)NC(=O)[C@@H](N)Cc2ccccc2)[C@H](C)OC(=O)[C@H](CC(C)C)NC1=O
## Output > 32 µg/mL

The origin of these recorded values is paper PMC12481569.
